tested on: HEF; test: Cytotoxicity against HEF after 72 hrs by MTT assay; assay type: cell-based; details: Homo sapiens
pIC50: −log10 of the molar value.

Molecule	Censoring Operator	pIC50
C=C1C2=C(C(=O)N1OC)[C@@H](F)[C@@](C)(O)[C@H](CCCCC)O2	=	4.43
C=C1C2=C(C(=O)N1OC)[C@H](OC(=O)CSc1nc3ccccc3[nH]1)[C@@](C)(O)[C@H](CCCCC)O2	=	4.96
COc1cc([C@@H]2c3cc4c(cc3[C@@H](O[C@@H]3O[C@@H]5CO[C@@H](C)O[C@H]5[C@H](O)[C@H]3O)[C@H]3COC(=O)[C@H]23)OCO4)cc(OC)c1O [ETOPOSIDE]	<	4.00
C=C1C2=C(C(=O)N1OC)[C@H](OC(=O)CCCCCl)[C@@](C)(O)[C@H](CCCCC)O2	=	4.96
C=C1C2=C(C(=O)N1OC)[C@H](OC(=O)CSc1nc3ccccc3s1)[C@@](C)(O)[C@H](CCCCC)O2	=	4.96
C=C1C2=C(C(=O)N1OC)[C@H](O)[C@@](C)(O)[C@H](CCCCC)O2	=	4.72
C=C1C2=C(C(=O)N1OC)[C@H](OC(=O)CCl)[C@@](C)(O)[C@H](CCCCC)O2	=	5.04
C=C1C2=C(C(=O)N1OC)[C@H](OC(=O)CSc1nc3ccccc3o1)[C@@](C)(O)[C@H](CCCCC)O2	=	5.03
